The values you see were collected from PubChem BioAssay AID2685.

Test: qHTS Assay for Lipid Storage Modulators in Drosophila S3 Cells;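 for cell number change: cells counted by Cell Tracker Red CMTPX staining in the red channel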
Conditions: BODIPY lipid droplet fluorescence, 18-24 h, cells fed with added oleic acid; measured here: cell count max response
In all, about 320,000 compounds went through this assay and about 2,100 (0.66%) were called active. Not shown: some 53% with an inconclusive outcome. The sample holds actives, similar compounds and a random draw of the others, so the mix is not that of the screen.
Parameter: cell number change (%)
Just the number please, in %, no unit attached.

Need cell number change of CC(C)C(=O)Nc1ccc(-c2nc3ncccc3o2)cc1 , thanks.
0.493

Queued: CCN1CCN(Cc2ccc(OCc3ccccc3)c(OC)c2)CC1
-5.92

Consider next the compound O=C1CCCc2ccccc2N1 in the same way.
15.4

Consider next the compound Cc1cc(Cl)ccc1NC(=S)NCCCN1CCCC1=O in the same way.
7.04

Param item: CCOc1ccc(NC(=NCc2ccc3c(c2)OCO3)SC2CC(=O)N(c3ccc(OCC)cc3)C2=O)cc1 (centres undefined)
1.82

Same thing, different compound: O=C(NCCc1ccccc1)C(=O)NN=C1CCCC1
6

Can you check CN(Cc1ccccc1)C(=O)COC(=O)c1ccccc1Nc1ccccc1 next?
-9.93

Further, for Cc1cccc(C)c1NC(=S)NCCCN1CCCC1=O ?
-0.836

Then this compound: COC(=O)[C@H](CCSC)NC(=O)Nc1ccc(C)c(C)c1
-12.2

Please do the same for CC(/C=C/c1ccccc1)=N/NC(=O)c1cnccn1 as well.
9.37

Item: COc1ccc(CN2CCN(C)CC2)cc1OCc1ccccc1
-3.92

// next record O=C(CC(=O)NN=C1CCCC1)NCCc1ccccc1
12

Subsequent entry: CCOC(=O)CNC(=O)CSc1nnc(-c2ccco2)n1Cc1ccco1
-21.7

And then OCCC1CN(Cc2ccncc2)CCN1C1CCCC1 (centres undefined) , what is it?
-1.79

What about this compound? O=C(O)C1CCC(=O)N1Cc1ccccc1Cl (centres undefined)
-9.84

// repeat for Cc1cccc(NC(=O)CCS(=O)(=O)c2ccccc2)n1 and report
3.85

What would you report for Cc1nc(NCC2CCCO2)c2nnn(Cc3c(F)cccc3Cl)c2n1 (centres undefined) ?
-5.53

Another compound: S=C(NCCc1ccccc1)NN=C1CCCCCC1
-23.7

Cool, now CSCC[C@H](NC(=O)Nc1cccc(C(F)(F)F)c1)C(=O)O
-1.65

====

Assay: qHTS Assay for Lipid Storage Modulators in Drosophila S3 Cells
Settings: BODIPY lipid droplet fluorescence, 18-24 h, cells fed with added oleic acid; series mostly up to 46.1 µM
Hit rate of the full screen: of about 320,000 compounds, about 2,100 (0.66%) were called active. Not shown: some 53% with an inconclusive outcome. The call rests on the fitted dose curve; in most records, active means well fitted inhibition curve with a large enough effect in the signal ratio, with a control signal flat (not every such curve was filed as active); inconclusive means small, poorly fitted or top-dose-only effect, or effect the other way, or a change in a side signal; inactive means flat fitted curve, though single readings scatter; the % refers to the signal ratio. The sample holds actives, similar compounds and a random draw of the others, so the mix is not that of the screen.
Your reply should match one of these outcome classes. active, inactive

Recorded test call requested for NC(=O)c1c(NC(=O)c2ccccc2F)sc2c1CCCC2
active

What do you get for COc1ccc(NC(=O)CSc2nc3scc(C)c3c(=O)[nH]2)cc1 ?
inactive

What do you have for CC(=O)C1=C(O)C(=O)N(CCc2c[nH]c3ccccc23)C1c1ccc(O)cc1 (stereo not drawn) ?
inactive

Now the molecule CN(C)c1ccc(/C=C2\C(=N)N3C(=NC2=O)Sc2cc(S(C)(=O)=O)ccc23)cc1
active

Can you check Cc1ccc(OCc2cc(C(=O)N(C)Cc3cnn(-c4ccccc4C)c3)no2)cn1 next?
active

And what about the molecule CCCC(=O)Nc1ccc(Cl)c(NC(=O)c2ccc([N+](=O)[O-])cc2Cl)c1 ?
inactive

Entry Fc1ccc(-c2cc(C(F)(F)F)nc(NCc3cccs3)n2)cc1 please
inactive

Proceed to Cc1sc2ncnc(NCc3ccccc3)c2c1C
inactive

Repeat with O=C(c1cccnc1Cl)N(Cc1ccccc1)Cc1ccccc1
inactive

Next up: CCCn1c(N)c(C(=O)CN(C)CC(=O)Nc2cc(C)ccc2C)c(=O)[nH]c1=O
inactive

Param item: Cc1nnc(SCC(=O)Nc2ccc(N3CCOCC3)cc2)n1-c1ccccc1
inactive

What do you have for CC1=Nc2ccccc2N=C(NC(=O)CSC(=S)N2CCCCC2)C1c1ccccc1 (stereo not drawn) ?
inactive

Now give it for Cc1cc(C)nc(/N=C(\NC(=O)C(C)(C)C)Nc2ccccc2)n1 too.
inactive

Entry CC(C)CCNC(=O)c1cc([N+](=O)[O-])ccc1N1CCOCC1 please
inactive

Field entry: COc1ccccc1-c1nnc(C2CCN(S(=O)(=O)c3ccccc3[N+](=O)[O-])CC2)o1
inactive

Now consider COc1ccccc1C(=O)Nc1ccc(Br)cc1C .
inactive

And the next one, CC(=O)C1=C(O)C(=O)N(CCc2c[nH]c3ccccc23)C1c1ccccc1 (stereo not drawn) ?
inactive

Proceed to FC(F)(F)c1ccnc(N2CCN(Cc3cnc(-c4ccccc4)[nH]3)CC2)c1
inactive

Again, but for COc1cccc(N2CCN(c3ccc4nnc(CCC(=O)Nc5cccc(C(C)=O)c5)n4n3)CC2)c1
inactive

Item: Cc1ccc(S(=O)(=O)Oc2ccc(/C=C3/C(=N)N4C(=NC3=O)SN=C4S(C)(=O)=O)cc2)cc1
inactive

// next record CC(CSc1nnnn1-c1ccccc1)Cn1c(N2CCN(C)CC2)nc2c1c(=O)[nH]c(=O)n2C (stereo not drawn)
inactive

Would you kindly repeat that for Cc1cc(C)c(Cc2c(C)nc3c(C(=O)NCc4ccco4)cnn3c2C)c(C)c1 ?
active

Also CCOC(=O)C1CCCN(C(=O)c2cc3ncc(Br)cn3n2)C1 (stereo not drawn) , if possible.
inactive

Request: CCOCCCNS(=O)(=O)c1cc2[nH]c3c(c2cc1C)C(=O)CC(C)(C)C3
inactive

COc1cccc(CN2C(=O)C(C)N(C(=O)c3ccccc3)c3ccccc32)c1 (stereo not drawn) , same question.
inactive

Another molecule to check: CCOc1cccc(OCCCCN2CCCCC2)c1
inactive

What about this molecule? COc1ccc(S(=O)(=O)N2CCOC2CNC(=O)C(=O)NCC(C)C)cc1 (stereo not drawn)
inactive

And for Cc1cc(Nc2c(C)n(C)n(-c3ccccc3)c2=O)c2ccccc2n1 ?
inactive

Query NC(=O)c1c(NC(=O)c2ccc(F)cc2Cl)sc2c1CCC2 next
inactive

Moving on to the next molecule: NC(=O)c1c(NC(=O)c2ccc(F)cc2)sc2c1CCC2
active

Also check CCOCCCNC(=O)c1ccc2c(c1)N=C(CC)c1cc(Br)ccc1S2
inactive

Try COc1cc(NC(=O)CCc2nnc3ccc(N4CCN(c5cccc(OC)c5)CC4)nn23)cc(OC)c1 next.
inactive

Item: NC(=O)c1c(NC(=O)c2ccccc2)sc2c1CCC2
inactive

Queued: COc1ccccc1C(=O)Nc1ccc(Br)c2cccnc12
active

Try this molecule too: COc1ccc2[nH]c(=O)c(CN(C(=O)C3CCCO3)c3ccc(C)cc3)cc2c1 (stereo not drawn)
inactive

Check COc1ccccc1C(=O)Nc1sc2c(c1C(N)=O)CCCC2 too.
inactive

Then CC(C)(C)C(=O)NCCN1CCN(C(=O)C(C)(C)C)CC1 ?
inactive

Now the same for CC(=O)c1ccc(OCc2cc(C(=O)N(C)Cc3cc(C)no3)no2)cc1
inactive

// query: Cc1cnc(C(=O)NNC(=O)c2ccc(Br)cc2)cn1
inactive

Another molecule to look at: COc1ccc(/C=C2/C(=N)N3C(=NC2=O)Sc2cc(S(C)(=O)=O)ccc23)cc1OC
inactive

Then COC(=O)c1ccc(NC(=O)CCc2nnc3ccc(N4CCC5(CC4)OCCO5)nn23)cc1 ?
inactive

Try this molecule next: Cc1cc(C)cc(C(=O)Oc2cc(C)[nH]c(=O)c2[N+](=O)[O-])c1
inactive

Try this molecule too: CCOC(=O)N/N=C/c1ccc(OC)c(O)c1
inactive

====

I'd appreciate it if you could supply cell number change values for the items below.
Test: qHTS Assay for Lipid Storage Modulators in Drosophila S3 Cells;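 for cell number change: cells counted by Cell Tracker Red CMTPX staining in the red channel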
Details: BODIPY lipid droplet fluorescence, 18-24 h, cells fed with added oleic acid; measured here: cell count max response
Text: NIH Molecular Libraries Probe Production Centers Network [MLPCN] NIH Chemical Genomics Center [NCGC] […] Triacsin C (Sigma-Aldrich T-4540), an inhibitor of long-chain fatty acyl CoA synthetase that blocks synthesis of triglycerides, was used as a positive control for lipid under-storage. […] Fluorescence was detected by excitation of the fluorophores with a 488-nm laser on an Acumen Explorer (TTP Lab Tech). […] Cells were detected using channel 3 (575-640 nm) with 5-um width and 100-um depth filters. […]
The whole screen tested about 320,000 compounds, of which about 2,100 (0.66%) were called active. Roughly 53% stayed inconclusive and do not appear here. The list comes from a sample in which actives are over-represented; it also holds close analogues and randomly drawn compounds.
I only need the number, in %, no unit after it.

Request the reported cell number change associated with COc1ccccc1NC(=O)/C(C#N)=C/c1cccnc1
14.4

Same for N#CC1(NC(=O)COc2cc(F)ccc2[N+](=O)[O-])CCCCC1
-12.3

What about CCOC(=O)C(NC(=O)CC)(Nc1ccccc1)C(F)(F)F (stereo not drawn) ?
-9.13

// repeat for COc1ccc(S(N)(=O)=O)cc1-c1nnc2c3ccccc3c(C)nn12 and report
-15.7

Here is the next compound: COCCNC(=O)Cn1nc(C(F)(F)F)c(Cl)c1C
-6.82

Let us now turn to CC(C)C(c1nnnn1C1CCCC1)N1CCCCC1 (stereo not drawn)
-26.8

Okay, and Cc1ccc(C(NC(=O)C2CCCCC2)c2c(O)ccc3ccccc23)cc1 (stereo not drawn) ?
-26.6

Request: CCOC(=O)C(NC(C)=O)(Nc1cccc(F)c1)C(F)(F)F (stereo not drawn)
-1.43

Here is the next compound: COc1ccc(S(=O)(=O)N2CCCC2)c2ccccc12
12.2

Ok, now O=C1CC(C(=O)Nc2ccc(C(=O)O)cc2)C(c2ccccc2)O1 (stereo not drawn)
-9.22

Subsequent entry: O=C1NC2(CCCCCCC2)C(=O)N1Cc1ccc(F)cc1
7.12

Next: COc1ccc(/C=N/N=C2/NC(=O)C(c3ccccc3)(c3ccccc3)S2)cc1
1.45

What about CC(=O)Nc1sc(NC(=O)c2ccc([N+](=O)[O-])cc2)nc1-c1cccs1 ?
7.62

Proceed to Cc1ccc(N(C(=O)CCCC(=O)Nc2ccccn2)C(C(=O)NC2CCCC2)c2ccc(O)cc2)cc1C (stereo not drawn)
-6.35

Further, for O=C(O)CN1C(=O)CSc2ccccc21 ?
2.34

What would you report for O=C(CN1C(=O)NC2(CCCC2)C1=O)N1CCN(Cc2ccccc2)CC1 ?
0.232

And what about the compound O=C(/C=C/c1cn(-c2ccccc2)nc1-c1cccnc1)N1CCCC1 ?
-19.7

Note, next up: COc1ccc(-c2cc(=O)c(C(=O)c3ccc(C)cc3)n[nH]2)cc1
14

Param item: CC(C)CC(=O)NC(c1ccccc1)c1c(O)ccc2ccccc12 (stereo not drawn)
-6.8

What about Cc1cc2cc(CN(Cc3cccs3)S(=O)(=O)c3ccc4c(c3)OCCO4)c(=O)[nH]c2cc1C ?
5.28

Again, but for O=C1NC2(CCCCCC2)C(=O)N1Cc1ccc(Br)cc1
-22.7

Queued: CC(=O)NC(c1ccccc1)c1c(O)ccc2ccccc12 (stereo not drawn)
0.433

Then COC(=O)c1c(C)[nH]c(C(=O)CN2C(=O)NC3(CCOc4ccccc43)C2=O)c1C (stereo not drawn) ?
-21.7
